B1: SEC22B (parent)
chain: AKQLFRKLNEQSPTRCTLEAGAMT

Variants of: B1
Assay: protein stability index of a GFP-peptide fusion (GPS, HEK-293T) (PSI 1-6); higher = more stable;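 further: lentivirally expressed fusions sorted by FACS into six bins by GFP to DsRed ratio, PSI derived from sequencing read proportions per bin multiplied by bin number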
Settings: c terminus: a fixed tail appended

| alteration | protein stability index |
| --- | --- |
| N9T | 1.97 |
| G21D | 2.99 |
| P13S | 1.58 |
| M23A | 2.09 |
| K2Q | 2 |
| Q11R | 1.41 |
| T17A | 1.81 |
| L4P | 3.07 |
| L4N | 2.75 |
